Cited source for all entries: PubChem BioAssay

- ASSAYED SYSTEM: Left-right determination factor 2 (Homo sapiens)
- ASSAY PROCEDURE: LEFTY2 binders on small-molecule microarrays, primary screen, biochemical, small-molecule microarray, 635 nm fluorescence scan (AID 1110)
- COND: LEFTY2 binding, higher = more signal
MEASURED PARAMETER: composite z-score
Reply briefly: the number, and no unit.

Which composite z-score value belongs to `COCCOC(=O)N1C(=O)[C@@]2(c3cc(C#CC4=CCCCC4)ccc31)[C@H](c1ccc(O)cc1)N1[C@H](c3ccccc3)[C@H](c3ccccc3)OC(=O)[C@H]1[C@@H]2C(=O)N1CCN(c2ncccn2)CC1` ? -0.742

Can you look up the measured composite z-score of COC1OC[C@]2(C)[C@H]3C4=C(CN2C(=O)OC(C)(C)C)[C@H](C)C(CO)C(CO)C4CC[C@@H]13 (some centres undefined) for me? -0.134

Entry under review: `COC(=O)[C@@]1(Cc2ccc(F)cc2)[C@H]2c3cc(C(=O)N(C)C)n(Cc4cc(F)cc5c4OCOC5)c3C[C@H]2CN1C(=O)c1ccccc1` . Reported composite z-score? 0.011

What does the data say about its composite z-score? Entry: `COCCCNC(=O)[C@]1(CCS(=O)(=O)c2ccccc2)N=C(c2ccc(OCCCO)cc2)O[C@@H]1c1ccccc1N=[N+]=[N-]` -0.0904

###

- System: XIP peptide (Xip251-270) binding
- ASSAY PROCEDURE: small-molecule binders of XIP peptide, primary screen, biochemical, small-molecule microarray, fluorescence 635/667 nm, 0.1 µg/mL protein (AID 1182)
- COND: fluorescent protein binding, 635 nm, higher = more signal, called active from +8 up or from −8 down
Recorded composite z-score split into classes range A (below 0.1), range B (0.1 to below 0.8), range C (0.8 or more)

Could you tell me which band `Cc1ccc(S[C@]2(C(=O)NCC(F)(F)F)CC(=O)N(Cc3ccccc3C(F)(F)F)[C@@H]2c2ccc(CO)cc2I)cc1` belongs to? range A

Textbook exercise: identify the category of the molecule given here, `CCCC[C@@H]1C[C@H]1[C@@H](NC(=O)Cc1ccccc1)c1ccc(-c2ccccc2)cc1` , according to its measured value. range B

Exercise: read the entry CC1CC/C=C\[C@H]2OC34C=CCN(c5ccc(Cl)cc5)C(=O)[C@H]3N(CCCCCO)C(=O)[C@]4(C)C2C(=O)O1 (stereo not given in full) and state which class it falls under. range A

Would you mind sorting `[N-]=[N+]=NCc1ccccc1C[C@]1(C(N)=O)N=C(c2ccc(OCCCO)cc2)O[C@H]1c1ccccc1` into the appropriate category? range B

Lab log: `COc1ccc([Si](C)(C)[C@@H]2[C@@H](CC(=O)N(CCO)Cc3ccccc3)O[C@]3(C(=O)N(Cc4cccc(N5CCOC5=O)c4)c4ccccc43)[C@H]2C)cc1` — assign composite z-score category range C

Please let me know in which category the item `CN(C)C(=O)[C@]1(CCS(=O)(=O)c2ccccc2)N=C(c2ccc(OCCCO)cc2)O[C@@H]1c1ccccc1N=[N+]=[N-]` belongs. range C

State the band of CCC(CC)C(O)C1C=CC2C(=O)N(c3ccccc3)C(=O)C2N1Nc1ccc(C(C)C)cc1 (stereo not given) range A

Quick check: band for O=C1OCCC=C[C@H]2OC34C=CCN(Cn5nnc6ccccc65)C(=O)[C@H]3N(CCCCCCO)C(=O)[C@@H]4C12 (stereo not given in full) range C

Which category fits this record: CC(c1ccccc1)C(O)C1C=CC2C(=O)N(c3ccccc3)C(=O)C2N1Nc1ccc([N+](=O)[O-])cc1 (stereo not given) range B

Field: class (composite z-score) — entry: `C=C(/C(=C/C[C@H](OC(=O)c1ccncc1)c1ccc(CO)o1)c1cc(C(=O)OC)ccc1OC)C(C)C` range A

Note: place this molecule into its band. Item: `CCOC(=O)C[C@H]1[C@H](OC(=O)c2ccccc2-c2ccccc2)[C@@H](NC(=O)c2ccc(-c3ccccc3)cc2)c2cc(OCCCO)ccc2N1C(=O)c1ccc2ccccc2n1` range A

Hello team, could you let me know which band the following molecule falls into: C=CCC(OC(C)=O)[C@@H]1[C@@H](N(Cc2cccc3ccccc23)C(=O)Cc2ccc(OC)cc2)c2cc(OCCCO)ccc2N1C(=O)c1ccc2ccccc2n1 (stereo not given in full) range C

Sort into band: `COC(=O)[C@@]1(Cc2ccc(F)cc2)[C@H]2c3cc(C(=O)N4CCCC4)n(CCN4CNCC4=O)c3C[C@H]2CN1C(=O)c1ccccc1` range B

Assign a bin to O=C1OCC=C[C@H]2OC34C=CCN(Cn5nnc6ccccc65)C(=O)[C@H]3N(CCCO)C(=O)[C@@H]4[C@@H]12 (stereo not given in full) range B

###

Kindly state composite z-score for each of the entries shown.
- ASSAY PROCEDURE: small-molecule binders of probe aNOTCH2, primary screen, biochemical, small-molecule microarray, 635/667 nm fluorescence (AID 1121);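 also: score merges feature fluorescence read at 667 nm with its signal to noise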
- COND: higher = more signal
Form field (numeric): enter value without unit.

Return reported composite z-score; argument: C=CC1c2cc(O)c(OC)cc2CCN1Cc1cc2c(cc1Br)OCO2 (centres undefined) -0.0891

Dear colleague, I am looking for the recorded composite z-score of the following compound: CN1C(=O)C2C=CC(C(O)c3cccc(O)c3)N(Nc3ccccc3)C2C1=O (centres undefined) -0.14

Given the compound `COc1ccc(CCNC(=O)[C@@]2(Sc3ccc(C)cc3)CC(=O)N(C3Cc4ccccc4C3)[C@@H]2c2ccc(CO)cc2)cc1` , what is its reported composite z-score? 0.0407

Item `COc1ccc([Si](C)(C)[C@H]2[C@H](CCn3cc([C@H](O)c4ccccc4)nn3)O[C@@]3(C(=O)N(Cc4ccc(N5C(=O)c6cccc7cccc5c67)cc4)c4ccccc43)[C@@H]2C)cc1` has what recorded composite z-score? -0.14

Report composite z-score for `CN(C)CCCNC(=O)[C@@]1(c2ccc([N+](=O)[O-])cc2)CC(=O)N(CC23CC4CC(CC(C4)C2)C3)[C@@H]1c1ccc(CO)cc1I` please. -0.0877

Need composite z-score, item `COC(=O)Cn1c(C(=O)N(C)C)cc2c1C[C@H]1CN(C(=O)c3ccccc3)[C@@](Cc3ccc(F)cc3)(C(=O)OC)[C@@H]21` 0.267

Param item = `C=C(/C(=C/C[C@H](OC(=O)c1ccncc1)c1ccc(CO)o1)c1cc(C(=O)OC)ccc1OC)C(C)C` ; retrieve measured composite z-score. -0.116

Quick one: composite z-score for `COc1ccc(CN(C2=CC[C@@]3(C(N)=O)C(=O)C(Cl)=C(Cl)C(=O)[C@@]3(C#N)C2)S(=O)(=O)c2ccc(Br)cc2)cc1` ? -0.0273

So what's the measured composite z-score for this one? `CC(C)OC(=O)C=C1C[C@@H](c2ccc(C(F)(F)F)cc2)O[C@@H](c2ccc(C(F)(F)F)cc2)O1` -0.128

Dear colleague, I am looking for the recorded composite z-score of the following compound: O=C1OCC=C[C@H]2OC34C=CCN(Cc5ccccc5)C(=O)[C@H]3N(CCCCCCO)C(=O)[C@@H]4[C@@H]12 (some centres undefined) -0.162

Entry `C=CCN1C(=O)[C@@]2(O[C@@H](CCn3cc([C@H](O)c4ccccc4)nn3)[C@H]([Si](C)(C)c3ccc(OC)cc3)[C@H]2C)c2cc(N3CCC3=O)ccc21` has what composite z-score? -0.189

Record request: composite z-score value, item CC(C)(C)N1CC=CC23O[C@@H]4C=CCCOC(=O)C4[C@H]2C(=O)N(CCO)[C@@H]3C1=O (some centres undefined) 0.226

Name the reported composite z-score value associated with the compound `COCCOC(=O)N1C(=O)[C@@]2(c3cc(C#CC4=CCCCC4)ccc31)[C@H](c1ccc(OCCO)cc1)N1[C@H](c3ccccc3)[C@H](c3ccccc3)OC(=O)[C@H]1[C@@H]2C(=O)NC[C@H](O)c1ccccc1` 0.0629

Reported composite z-score for `COC(=O)[C@H](Cc1ccccc1)N1CC(/C=C/C2CC2)=C[C@H]1[C@H](O)Cc1ccccc1` : what is it? -0.14

###

- ASSAY PROCEDURE: small-molecule binders of probe aNOTCH3, primary screen, biochemical, small-molecule microarray, 635/667 nm fluorescence (AID 1120);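 also: probe is a biotin-tagged antibody raised against NOTCH3 rather than NOTCH3 protein; score merges spot fluorescence near 667 nm with spot signal to noise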
- COND: higher = more signal
MEASURED PARAMETER: composite z-score

Quick one: composite z-score for `CCCC[C@@H]1C[C@H]1[C@@H](NC(=O)c1cccs1)c1ccc(C(F)(F)F)cc1` ? 0.0026

Query: composite z-score; subject: O=C1NC(=O)C2C1C=CC(C(O)c1cccc3ccccc13)N2Nc1ccc(Cl)cc1Cl (centres undefined) 0.0496

Any idea what composite z-score was measured for CCCCCCCCCCC(O)C1C=CC2C(=O)N(C)C(=O)C2N1Nc1ccc([N+](=O)[O-])cc1[N+](=O)[O-] (centres undefined) ? 0.0668

Look up composite z-score for this compound: C=CCC(OC(C)=O)[C@@H]1[C@@H](N(Cc2cccc3ccccc23)C(=O)Cc2ccc(F)cc2)c2cc(OCCCO)ccc2N1C(=O)c1ccc2ccccc2n1 (some centres undefined) -0.0125
